assay: Cytotoxicity against human HuH7 cells; format: cell-based; settings: Huh-7 cells
# CC50 per entry
reported_property: CC50

>>> result("C=C[C@@H]1C[C@]1(NC(=O)[C@@H]1C[C@@H](Oc2nccc3c(F)cccc23)CN1C(=O)[C@@H](NC(=O)OC(C)(C)C)C(C)(C)C)C(=O)NS(=O)(=O)C1CC1")
"> 100 µM"
>>> result("C=C[C@@H]1C[C@]1(NC(=O)[C@@H]1C[C@@H](Oc2ncc(OC)c3ccccc23)CN1C(=O)[C@@H](NC(=O)OC(C)(C)C)C(C)(C)C)C(=O)NS(=O)(=O)C1CC1")
"76 µM"
>>> result("C=C[C@@H]1C[C@]1(NC(=O)[C@@H]1C[C@@H](Oc2nccc3cc(OC)ccc23)CN1C(=O)[C@@H](NC(=O)OC(C)(C)C)C(C)C)C(=O)NS(=O)(=O)C1CC1")
"> 100 µM"
>>> result("C=C[C@@H]1C[C@]1(NC(=O)[C@@H]1C[C@@H](Oc2nccc3cc(OC)ccc23)CN1C(=O)[C@@H](NC(=O)O[C@H]1CCOC1)C(C)(C)C)C(=O)NS(=O)(=O)C1CC1")
"> 100 µM"
>>> result("C=C[C@@H]1C[C@]1(NC(=O)[C@@H]1C[C@@H](Oc2nccc3cc(C(=O)N(C)C)ccc23)CN1C(=O)[C@@H](NC(=O)OC(C)(C)C)C(C)(C)C)C(=O)NS(=O)(=O)C1CC1")
"> 100 µM"
>>> result("C=C[C@@H]1C[C@]1(NC(=O)[C@@H]1C[C@@H](Oc2ncc(Cl)c3ccccc23)CN1C(=O)[C@@H](NC(=O)OC(C)(C)C)C(C)(C)C)C(=O)NS(=O)(=O)C1CC1")
"45 µM"
>>> result("C=C[C@@H]1C[C@]1(NC(=O)[C@@H]1C[C@@H](Oc2nccc3cc(OCC)ccc23)CN1C(=O)[C@@H](NC(=O)OC(C)(C)C)C(C)(C)C)C(=O)NS(=O)(=O)C1CC1")
"74 µM"
>>> result("C=C[C@@H]1C[C@]1(NC(=O)[C@@H]1C[C@@H](Oc2nccc3ccc(C)cc23)CN1C(=O)[C@@H](NC(=O)OC(C)(C)C)C(C)(C)C)C(=O)NS(=O)(=O)C1CC1")
"86 µM"
>>> result("C=C[C@@H]1C[C@]1(NC(=O)[C@@H]1C[C@@H](Oc2nccc3ccccc23)CN1C(=O)[C@@H](NC(=O)OC(C)(C)C)C(C)(C)C)C(=O)NS(=O)(=O)C1CC1")
"> 100 µM"
>>> result("C=C[C@@H]1C[C@]1(NC(=O)[C@@H]1C[C@@H](Oc2nc(-c3ccccc3)cc3ccccc23)CN1C(=O)[C@@H](NC(=O)OC(C)(C)C)C(C)(C)C)C(=O)NS(=O)(=O)C1CC1")
"12 µM"
>>> result("C=C[C@@H]1C[C@]1(NC(=O)[C@@H]1C[C@@H](Oc2cncc3cc(OC)ccc23)CN1C(=O)[C@@H](NC(=O)OC(C)(C)C)C(C)(C)C)C(=O)NS(=O)(=O)C1CC1")
"> 100 µM"
